molecular target: CYP2C9 (Homo sapiens, UniProt P11712); test: Inhibition of human hepatic CYP2C9 using diclofenac as substrate measured after 10 mins by LC-MS analysis relative to control; type: ADME, tissue-based; set-up: concentration or dose not given beside the values; details: human hepatic CYP2C9 (liver), probe diclofenac
Sequence (P11712 whole entry): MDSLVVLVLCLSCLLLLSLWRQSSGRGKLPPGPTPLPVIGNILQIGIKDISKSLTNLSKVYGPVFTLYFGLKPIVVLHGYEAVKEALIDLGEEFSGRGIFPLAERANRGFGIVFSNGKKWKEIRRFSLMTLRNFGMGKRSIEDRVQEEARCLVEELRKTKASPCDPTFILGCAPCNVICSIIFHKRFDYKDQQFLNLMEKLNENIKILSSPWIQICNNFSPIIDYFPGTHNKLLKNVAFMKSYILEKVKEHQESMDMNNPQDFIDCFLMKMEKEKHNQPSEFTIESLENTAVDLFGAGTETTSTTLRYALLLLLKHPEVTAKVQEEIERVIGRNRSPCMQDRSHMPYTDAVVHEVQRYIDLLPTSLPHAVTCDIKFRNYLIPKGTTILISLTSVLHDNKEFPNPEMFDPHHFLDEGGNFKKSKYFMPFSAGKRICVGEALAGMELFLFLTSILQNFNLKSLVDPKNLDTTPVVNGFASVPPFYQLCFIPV
Property label: inhibition at 10 min (%)
Output spec: scalar in %, unitless text.

Value lookup for inhibition at 10 min; key = "O=C(CS(=O)(=O)O)Nc1ccc(N2CCOCC2)c(Br)c1" 64

How about "Cc1c(Br)cc(NC(=O)NS(=O)(=O)O)cc1Br" ? 0

Next record, please: "N.O=C(Nc1nc2ccccc2s1)NS(=O)(=O)O" 0

Same lookup for "Cc1c(Br)cc(NC(=O)CS(=O)(=O)O)cc1Br" , please. 18

# iterate: Cc1c(Br)cc(NC(=O)C(c2ccccc2)S(=O)(=O)O)cc1Br (stereo not drawn) 79

Also need "O=C(CS(=O)(=O)O)Nc1nc2ccccc2s1" , thanks. 1

Next up: "O=C(CS(=O)(=O)O)Nc1nc2ccc([N+](=O)[O-])cc2s1" 0

What do we get for O=C(Nc1nc2ccccc2s1)C(c1ccccc1)S(=O)(=O)O (stereo not drawn) ? 69

* * *

target: Receptor-type tyrosine-protein phosphatase F (Homo sapiens)
Sequence (P10586 whole entry): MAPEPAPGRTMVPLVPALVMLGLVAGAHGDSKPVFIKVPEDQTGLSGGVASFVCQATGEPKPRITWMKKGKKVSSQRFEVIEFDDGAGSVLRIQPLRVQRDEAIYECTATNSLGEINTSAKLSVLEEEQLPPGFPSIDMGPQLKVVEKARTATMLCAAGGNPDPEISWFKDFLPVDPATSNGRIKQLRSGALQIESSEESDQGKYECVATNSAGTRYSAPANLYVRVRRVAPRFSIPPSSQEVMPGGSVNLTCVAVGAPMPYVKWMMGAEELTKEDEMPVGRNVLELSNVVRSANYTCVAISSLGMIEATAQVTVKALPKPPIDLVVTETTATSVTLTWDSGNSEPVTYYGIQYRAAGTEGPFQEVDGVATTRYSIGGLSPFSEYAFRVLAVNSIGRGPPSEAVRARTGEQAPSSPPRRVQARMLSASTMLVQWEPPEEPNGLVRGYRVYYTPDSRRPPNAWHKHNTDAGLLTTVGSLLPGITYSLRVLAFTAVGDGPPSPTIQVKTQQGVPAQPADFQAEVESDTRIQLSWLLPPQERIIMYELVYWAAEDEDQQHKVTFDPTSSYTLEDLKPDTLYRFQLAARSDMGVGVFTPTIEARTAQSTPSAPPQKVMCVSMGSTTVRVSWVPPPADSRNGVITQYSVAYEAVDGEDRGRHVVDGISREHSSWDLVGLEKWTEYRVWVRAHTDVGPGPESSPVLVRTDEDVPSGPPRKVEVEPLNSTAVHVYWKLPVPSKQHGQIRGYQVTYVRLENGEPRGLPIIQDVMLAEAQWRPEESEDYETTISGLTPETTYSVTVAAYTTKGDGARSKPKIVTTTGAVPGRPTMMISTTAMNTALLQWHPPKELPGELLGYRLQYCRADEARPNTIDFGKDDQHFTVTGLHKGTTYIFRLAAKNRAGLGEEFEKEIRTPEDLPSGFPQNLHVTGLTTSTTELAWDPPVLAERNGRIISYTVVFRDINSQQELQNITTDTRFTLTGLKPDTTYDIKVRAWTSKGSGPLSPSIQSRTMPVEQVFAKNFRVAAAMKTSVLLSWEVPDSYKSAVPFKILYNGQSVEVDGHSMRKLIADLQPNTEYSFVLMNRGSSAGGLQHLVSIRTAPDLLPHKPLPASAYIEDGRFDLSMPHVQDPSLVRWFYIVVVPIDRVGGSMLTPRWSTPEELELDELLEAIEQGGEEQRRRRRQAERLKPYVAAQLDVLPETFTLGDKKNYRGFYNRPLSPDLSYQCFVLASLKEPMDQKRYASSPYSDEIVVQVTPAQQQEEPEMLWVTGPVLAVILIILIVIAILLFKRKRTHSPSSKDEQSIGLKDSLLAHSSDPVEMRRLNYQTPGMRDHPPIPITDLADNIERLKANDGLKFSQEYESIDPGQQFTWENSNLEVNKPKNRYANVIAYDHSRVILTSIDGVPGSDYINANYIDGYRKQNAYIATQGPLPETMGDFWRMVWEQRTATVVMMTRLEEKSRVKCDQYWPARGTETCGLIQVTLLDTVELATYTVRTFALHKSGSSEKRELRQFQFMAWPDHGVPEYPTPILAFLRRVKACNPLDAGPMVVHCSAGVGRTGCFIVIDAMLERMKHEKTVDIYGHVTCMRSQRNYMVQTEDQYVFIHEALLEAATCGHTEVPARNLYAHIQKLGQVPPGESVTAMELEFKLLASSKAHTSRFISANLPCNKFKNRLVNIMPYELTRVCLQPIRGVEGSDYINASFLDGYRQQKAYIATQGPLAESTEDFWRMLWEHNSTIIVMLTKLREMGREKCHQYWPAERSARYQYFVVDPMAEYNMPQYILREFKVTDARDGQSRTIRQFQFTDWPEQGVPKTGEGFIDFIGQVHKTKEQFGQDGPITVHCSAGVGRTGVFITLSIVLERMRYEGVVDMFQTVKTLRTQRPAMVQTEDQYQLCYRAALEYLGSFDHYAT
Property label: IC50

Fill blank: measured IC50 of the compound "Cc1c(Br)cc(NC(=O)NS(=O)(=O)O)cc1Br" is ____. > 10 µM

* * *

molecular target: UniProtKB P51452
Sequence (P51452 whole entry): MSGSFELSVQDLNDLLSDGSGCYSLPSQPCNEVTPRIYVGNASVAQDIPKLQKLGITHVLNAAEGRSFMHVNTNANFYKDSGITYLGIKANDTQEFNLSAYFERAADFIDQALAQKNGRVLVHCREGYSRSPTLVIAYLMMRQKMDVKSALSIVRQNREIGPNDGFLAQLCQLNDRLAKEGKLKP
Property label: IC50

What value of measured IC50 is listed for "Cc1c(Br)cc(NC(=O)NS(=O)(=O)O)cc1Br" ? > 10 µM

* * *

assay: Cmax in Sprague-Dawley rat plasma at 30 mg/kg, po measured after 24 hrs by LC-MS/MS analysis; type: ADME, organism-based; design: time 24 hrs, dose 30 mg/kg, route po; conditions: in vivo
Property label: Cmax (µM)
Report the figure in µM without appending any unit label.

Which Cmax value belongs to "Cc1c(Br)cc(NC(=O)NS(=O)(=O)O)cc1Br" ? 6.59

What would you report for "O=C(CS(=O)(=O)O)Nc1ccc(N2CCOCC2)c(Br)c1" ? 0.258

Request: Cc1c(Br)cc(NC(=O)C(c2ccccc2)S(=O)(=O)O)cc1Br (centres undefined) 6.12

Field entry: "Cc1c(Br)cc(NC(=O)CS(=O)(=O)O)cc1Br" 3.03

* * *

assay: Cmax in CD-1 mouse plasma at 10 mg/kg, po measured after 8 hrs by LC-MS/MS analysis; type: ADME, organism-based; parameters: dose 10 mg/kg, time 8 hrs, route po; details: mouse, in vivo, 8 h
Task for the reader: assign each of the following compounds its reported Cmax.

Request the reported Cmax associated with "Cc1c(Br)cc(NC(=O)NS(=O)(=O)O)cc1Br" 9690 nM

Another compound to look at: "O=C(CS(=O)(=O)O)Nc1ccc(N2CCOCC2)c(Br)c1" 483 nM

Also check Cc1c(Br)cc(NC(=O)C(c2ccccc2)S(=O)(=O)O)cc1Br (stereo not drawn) 1020 nM

* * *

Biological target: Tyrosine-protein phosphatase non-receptor type 2 (Homo sapiens, UniProt P17706)
Sequence (P17706 whole entry): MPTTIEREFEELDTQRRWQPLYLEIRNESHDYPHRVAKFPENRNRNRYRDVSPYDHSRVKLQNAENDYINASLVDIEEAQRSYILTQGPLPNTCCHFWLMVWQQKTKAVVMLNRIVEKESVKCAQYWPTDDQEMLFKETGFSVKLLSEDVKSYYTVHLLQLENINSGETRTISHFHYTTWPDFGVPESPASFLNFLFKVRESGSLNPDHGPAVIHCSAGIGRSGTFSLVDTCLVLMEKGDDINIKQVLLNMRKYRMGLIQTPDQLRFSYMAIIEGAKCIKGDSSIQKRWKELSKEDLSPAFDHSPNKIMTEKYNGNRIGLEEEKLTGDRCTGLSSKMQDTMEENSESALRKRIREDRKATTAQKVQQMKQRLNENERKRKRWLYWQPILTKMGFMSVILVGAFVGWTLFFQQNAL
pIC50: −log10 of the molar value.
Property label: pIC50

Report pIC50 for "Cc1c(Br)cc(NC(=O)NS(=O)(=O)O)cc1Br" please. < 5.00
